- stated conditions: in methyl acetate, 308.15 K
measurement type: solubility (mole fraction)
Write no unit; give the number alone.

Request: Consider the molecule Cc1c(-c2ccccc2)oc2c(C(=O)O)cccc2c1=O and give its measured solubility (mole fraction).
Response: 0.00382

###

- stated conditions: in acetonitrile, 313.15 K
measurement type: solubility (mole fraction)
Just the number, please, no unit after it.

Request: // lookup solubility (mole fraction) for Cc1c(-c2ccccc2)oc2c(C(=O)O)cccc2c1=O
Response: 0.000768

###

- stated conditions: in isobutanol, 278.15 K
measurement type: solubility (mole fraction)
Answer field: number only, no words.

Request: Consider the molecule Cc1c(-c2ccccc2)oc2c(C(=O)O)cccc2c1=O and give its measured solubility (mole fraction).
Response: 0.000942

###

- stated conditions: in isobutanol, 323.15 K
measurement type: solubility (mole fraction)
The reply should be a number, written without any unit.

Request: Which solubility (mole fraction) reading was recorded for the compound Cc1c(-c2ccccc2)oc2c(C(=O)O)cccc2c1=O ?
Response: 0.0056

###

- stated conditions: in methyl acetate, 298.15 K
measurement type: solubility (mole fraction)
Would you mind answering with just the numeric figure?

Request: // solubility (mole fraction) lookup, key: Cc1c(-c2ccccc2)oc2c(C(=O)O)cccc2c1=O
Response: 0.00245

###

- stated conditions: in acetonitrile, 288.15 K
measurement type: solubility (mole fraction)
Output spec: single numeric token, no unit.

Request: What solubility (mole fraction) value was documented for this compound, Cc1c(-c2ccccc2)oc2c(C(=O)O)cccc2c1=O ?
Response: 0.00031

###

- stated conditions: in acetonitrile, 318.15 K
measurement type: solubility (mole fraction)
Write no unit; give the number alone.

Request: Fill in the blank: the reported solubility (mole fraction) of Cc1c(-c2ccccc2)oc2c(C(=O)O)cccc2c1=O is ____.
Response: 0.000893

###

- stated conditions: in acetonitrile, 293.15 K
measurement type: solubility (mole fraction)

Request: May I ask what solubility (mole fraction) has been recorded for Cc1c(-c2ccccc2)oc2c(C(=O)O)cccc2c1=O ?
Response: 0.00037

###

- stated conditions: in isobutanol, 288.15 K
measurement type: solubility (mole fraction)

Request: Would you kindly share the measured solubility (mole fraction) for Cc1c(-c2ccccc2)oc2c(C(=O)O)cccc2c1=O ?
Response: 0.00143

###

- stated conditions: in DMF, 318.15 K
measurement type: solubility (mole fraction)
Just the number, please.

Request: Data request, read-out solubility (mole fraction), for Cc1c(-c2ccccc2)oc2c(C(=O)O)cccc2c1=O
Response: 0.072

###

- stated conditions: in acetone, 313.15 K
measurement type: solubility (mole fraction)
Form rule: numeric answer, no unit written next to it.

Request: Given the compound Cc1c(-c2ccccc2)oc2c(C(=O)O)cccc2c1=O , what is its reported solubility (mole fraction)?
Response: 0.00489

###

- stated conditions: in n-butyl acetate, 278.15 K
measurement type: solubility (mole fraction)
Answer with the value's number alone.

Request: Return reported solubility (mole fraction); argument: Cc1c(-c2ccccc2)oc2c(C(=O)O)cccc2c1=O
Response: 0.000947

###

- stated conditions: in ethanol, 303.15 K
measurement type: solubility (mole fraction)
Give the figure by itself; no unit, no explanation.

Request: Name the recorded solubility (mole fraction) for Cc1c(-c2ccccc2)oc2c(C(=O)O)cccc2c1=O .
Response: 0.00258

###

- stated conditions: in DMF, 288.15 K
measurement type: solubility (mole fraction)
In your answer, state the number alone without any accompanying words.

Request: Can you look up the measured solubility (mole fraction) of Cc1c(-c2ccccc2)oc2c(C(=O)O)cccc2c1=O for me?
Response: 0.0213
